The reported numbers originate from the supplement of paper PMC10567573.

B1: FBXO39 (parent)
chain: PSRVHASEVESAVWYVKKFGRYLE

Variants of: B1
Procedure Text: protein stability index of a GFP-peptide fusion (GPS, HEK-293T) (PSI 1-6); higher = more stable;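 also: lentivirally expressed fusions sorted by FACS into six bins by GFP to DsRed ratio, PSI derived from sequencing read proportions per bin multiplied by bin number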
Condition Summary: c terminus: a fixed tail appended
Threshold rule: protein stability index greater than or equal to 2 is T; below that, F.

For orientation, consider the following solved cases.
>>> label_value("A12V")
"F"
>>> label_value("V13M")
"T"
>>> label_value("S7A")
"T"
>>> label_value("S7Q")
"T"

Query block: Please check the record `V4H` and state if its protein stability index is at or above 2.
Result block: T

Query block: Please check the record `K18H` and state if its protein stability index is at or above 2.
Result block: F
